Test system: MMV007839-selected culture A (PfFNT Gly107Ser)
Assay: Parasite proliferation assay, MMV007839-selected culture A
Type: cell-based, Plasmodium falciparum
Details: MMV007839-selected culture A; mean ± SEM; read-out: IC50 value, growth inhibition
Method: Parasite proliferation was measured in 96-well plates using a fluorescent DNA-intercalating dye. The assays were initiated with erythrocytes infected with predominantly ring-stage parasites, and the starting parasitaemia was 0.5–1% and the haematocrit was 1%. For MMV007839-selected culture A, the drug concentration was increased by 5 nM increments on Day 18, Day 21, and every two days thereafter. […]
pIC50: −log10 of the molar value.

molecule: COc1ccc2c(c1)OC(O)(C(F)(F)C(F)(F)F)CC2=O (centres unmarked)
experimental-system: MMV007839-selected culture A (PfFNT Gly107Ser)
pIC50: 4.45
--
molecule: O=C1CC(O)(C(F)(F)C(F)(F)F)Oc2ccccc21 (centres unmarked)
experimental-system: MMV007839-selected culture A (PfFNT Gly107Ser)
pIC50: 4.22
